- System: mammary gland of lactating dairy cows
- test_details: Field study of involution induction: change in lactose content of milk samples after a single intramammary infusion at dry-off
- Assay type: in vivo
- run_conditions: difference in lactose concentration vs Day 0; Day 1 post treatment; single intramammary infusion, peptides 4 mg in 10 ml, casein hydrolyzate 20 ml
Square brackets hold non-standard residues; d marks the D form. Ends that are not written are not given here. pS = N[C@@H](COP(=O)(O)O)C(=O)O
quantity_kind: Changes in Lactose content in milk samples, Day 1, Mean
Would you mind answering with just the numeric figure?

INSERT INTO results (substance, assayed_system, test_result) VALUES
  ('Lys-Lys-Ser(P)-Leu-Ser(P)-Ser(P)-Ser(P)-NH2 (KK[pS]L[pS][pS][pS]-NH2; N-terminus assumed; SMILES CC(C)C[C@H](NC(=O)[C@H](COP(=O)(O)O)NC(=O)[C@H](CCCCN)NC(=O)[C@@H](N)CCCCN)C(=O)N[C@@H](COP(=O)(O)O)C(=O)N[C@@H](COP(=O)(O)O)C(=O)N[C@@H](COP(=O)(O)O)C(N)=O) [A(p)]', 'mammary gland of lactating dairy cows', '−0.462');

Kindly consider the entry below.
Briefly, Changes in Lactose content in milk samples, Day 1, Mean measured for Glu-Ser(P)-Leu-Ser(P)-Ser(P)-Ser(P)-Glu-Glu-NH2 (E[pS]L[pS][pS][pS]EE-NH2; N-terminus assumed; SMILES CC(C)C[C@H](NC(=O)[C@H](COP(=O)(O)O)NC(=O)[C@@H](N)CCC(=O)O)C(=O)N[C@@H](COP(=O)(O)O)C(=O)N[C@@H](COP(=O)(O)O)C(=O)N[C@@H](COP(=O)(O)O)C(=O)N[C@@H](CCC(=O)O)C(=O)N[C@@H](CCC(=O)O)C(N)=O) [D(p), casein-derived peptide, positive control] : −0.431
